Molecular target: T1, human CD33 (human, UniProt P20138 18-259, limits assumed)
T1 construct: Human CD33 immobilized on the BLI sensor tip or the BIAcore C1 chip; also called Siglec-3
T1 sequence (P20138 18-259 limits assumed): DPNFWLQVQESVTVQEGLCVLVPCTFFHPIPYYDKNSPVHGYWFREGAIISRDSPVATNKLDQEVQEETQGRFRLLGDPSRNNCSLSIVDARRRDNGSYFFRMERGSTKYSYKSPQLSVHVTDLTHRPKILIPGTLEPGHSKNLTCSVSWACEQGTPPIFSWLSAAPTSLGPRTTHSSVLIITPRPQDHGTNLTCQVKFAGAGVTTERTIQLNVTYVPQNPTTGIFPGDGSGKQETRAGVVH
Test: SPR (BIAcore), Fab over CD33 on C1 chip
READOUT KIND: koff (s⁻¹)
// units = s⁻¹; emit number, no label

koff recorded for this binder, AB-64.5 (antibody, V domains shown) VH: QVQLVQSGAEVKKPGASVKISCKASGYTFTDYNYHWVRQAPGQGLEWIGFIYPSNGITGYAQKFFGRATLTVDNSTSTAYMELSSLRSEDTAVYYCARSDVDYFDYWGQGTLLTVSS VL: DIVLTQSPDSLAVSLGERATINCRASQSVGTSTYSYMHWYQQKPGQPPKLLIKYASNLESGVPDRFSGSGSGTDFTLTISSLQAEDVAVYYCQHSWEIPLTFGQGTKLEIK , is 6.33e-05

koff recorded for this binder, AB-64.1.8 (antibody, V domains shown, Variant of AB-64.1) VH: QVQLVQSGAEVKKPGASVKISCKASGYTFTDYNLHWVRQAPGQGLEWIGFIYPSNQITGYAQKFQGRATLTVDNSASTAYMELSSLRSEDTAVYYCARSDVDYFDYWGQGTLLTVSS VL: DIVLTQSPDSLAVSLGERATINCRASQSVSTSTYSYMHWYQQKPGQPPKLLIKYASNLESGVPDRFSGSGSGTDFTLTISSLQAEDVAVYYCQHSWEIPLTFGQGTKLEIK , is 0.000634

koff recorded for this binder, AB-64.7 (antibody, V domains shown) VH: QVQLVQSGAEVKKPGASVKISCKASGYTFTDYNYHWVRQAPGQGLEWIGFIYPSNGITGYAQKFQGRATLTVDNSTSTAYMELSSLRSEDTAVYYCARSDVDYFDYWGQGTLLTVSS VL: DIVLTQSPDSLAVSLGERATINCRASQSVGTSTYSYMHWYQQKPGQPPKLLIKYASNLNSGVPDRFSGSGSGTDFTLTISSLQAEDVAVYYCQHSEEIPLTFGQGTKLEIK , is 8.75e-05
